- measured on: SARS-CoV-2 NSP3 Mac1 (Severe acute respiratory syndrome coronavirus 2)
- run description: biochemical
- Format: binding
- reported conditions: IC50 [µM], HTRF ADPr-conjugated peptide displacement
recorded metric: IC50 (µM)
A number alone suffices; assume µM.

Using the record for O[C@H]1CCCC[C@H]1Nc1ncnc2[nH]ccc12 (relative stereo) [SRH-0015] , report its IC50.
132

State the recorded IC50 for this entry: O=C(O)[C@H]1CCCC[C@H]1Nc1ncnc2[nH]c3cc(F)ccc3c12 [LRH-0021]
1.7

###

- measured on: SARS-CoV-2 NSP3 Mac1 (Severe acute respiratory syndrome coronavirus 2, UniProt P0DTD1)
- Format: binding
- reported conditions: PanDDA event map background density correction; crystal soak, compound concentration 100 mM
recorded metric: 1-BDC
// response body must contain only the number

Need 1-BDC, item O=C(NCc1c(C(=O)O)[nH]c2ccccc12)c1ccc2[nH]c(O)nc2c1
0.05

Need 1-BDC, item Nc1ccc(C(=O)N2CC(c3nnc(S)o3)C2)c(Cl)n1
0.1

I'd like to know its 1-BDC. The compound in question is Cc1oc(C(N)=O)cc1S(=O)(=O)Nc1ccc(Br)c(C#N)c1
0.26

Looking for the measured 1-BDC of Cn1ncc2c(=O)[nH]c(CCC(=O)N3CC=C(C(=O)O)C3)nc21 , can you help?
0.17

Given Cc1oc(C(N)=O)cc1S(=O)(=O)Nc1cnc(Cl)c(C#N)c1 , state its recorded 1-BDC.
0.16

Recorded 1-BDC for O=C(CCCCc1ccc(Br)cc1)NC(CCc1cn[nH]c1)C(=O)O (stereo not drawn) , please?
0.11

For the compound CC(Cc1ccco1)C(=O)N[C@@H](CC(=O)O)c1ccc2c(c1)OCO2 (stereo partly drawn) , what 1-BDC is on record?
0.15

Any idea what 1-BDC was measured for Cn1ncc2ncnc(NS(=O)(=O)Cc3ccc(CC#N)cc3)c21 ?
0.31

What does the record list as 1-BDC for Nc1nc(N2CC3(CCC3)C(F)(C(=O)O)C2)c2c(n1)[nH]c1cc(F)ccc12 (stereo not drawn) ?
0.17

###

- measured on: SARS-CoV-2 NSP3 Mac1 (Severe acute respiratory syndrome coronavirus 2)
- Format: binding
- reported conditions: PanDDA event map background density correction; crystal soak, Compound_concentration 100 mM; PanDDA run dmso_34
recorded metric: 1-BDC
// keep it numeric: no unit symbol after the value

Which measured 1-BDC belongs to CC(O)CNc1cc(N2CC3(CCC3)C(F)(C(=O)O)C2)ncn1 (stereo not shown) , tested on SARS-CoV-2 NSP3 Mac1 (Severe acute respiratory syndrome coronavirus 2)?
0.18

Param readout = 1-BDC; param system = SARS-CoV-2 NSP3 Mac1 (Severe acute respiratory syndrome coronavirus 2); param query = O=C(Cc1ccc(-n2cccn2)cc1)OCC1CCCNC1=O (stereo not shown) ; response: value
0.08

# query: 1-BDC | item Nc1ncnc(N2CCC(Oc3ccncc3)C2)c1Cl (stereo not shown) | system: SARS-CoV-2 NSP3 Mac1 (Severe acute respiratory syndrome coronavirus 2)
0.13

Query the reported 1-BDC for SARS-CoV-2 NSP3 Mac1 (Severe acute respiratory syndrome coronavirus 2); item: OC[C@H]1CCCN(c2ncnc3[nH]c4cc(F)ccc4c23)C1
0.06

###

Hi there, I'd appreciate the recorded Ki for every entry that follows.
- measured on: SARS-CoV-2 NSP3 Mac1 (Severe acute respiratory syndrome coronavirus 2)
- run description: biochemical
- Type: binding
- reported conditions: Ki estimation from HTRF-derived IC50, Cheng-Prusoff, peptide 400nM, Kd 2.68µM; read-out: Ki***
Output spec: scalar in µM, unitless text.

Field request: Ki | item: O=C(O)CC1CCN(c2ncnc3[nH]c4ccccc4c23)CCC1(F)F (stereo not drawn) [Z6423]
124

Would you mind telling me what Ki value was observed for O=c1[nH]nc(C2CCCN(c3ncnc4[nH]ccc34)C2)o1 (stereo not drawn) [Z7655] ?
243

Fill in: Ki of CC(C)NC(=O)Nc1ccc(C(=O)NC2c3cccc(O)c3CC2C(=O)O)cc1 (stereo not drawn) [Z8539_0046] is ___
0.7

Returns the measured Ki for the input compound. Input: CC(O)CNc1cc(N2CC3(CCC3)C(F)(C(=O)O)C2)ncn1 (stereo not drawn) [Z5722]
404

Can you look up the measured Ki of O=C(NC1c2cccc(O)c2CC1C(=O)O)c1ccc(Nn2ccnc2)cc1 (stereo not drawn) [Z8539_0011] for me?
16.5

Name the recorded Ki for O=C(O)C1CN(c2ncnc3[nH]c4cc(F)ccc4c23)CCC12CCC2 (stereo not drawn) [LL123_0029] .
13.8

I'd like to know its Ki. The compound in question is O=C(NC1c2cccc(O)c2CC1C(=O)O)c1cnc2c(c1)CCCN2 (stereo not drawn) [8539_0006]
146

# input compound: OC[C@H]1CCCN(c2ncnc3[nH]c4cc(F)ccc4c23)C1 [Z7873] ; wanted: its Ki
78.6

Name the recorded Ki for Cc1[nH]c2ncnc(N3CCOC(CC(F)(F)F)C3)c2c1C (stereo not drawn) [Z2051] .
119

Requested field: Ki. Item: O=C(Nc1ccc(C(=O)NC2c3cccc(O)c3CC2C(=O)O)cn1)NC1CC1 (stereo not drawn) [Z8539_0054]
13.9

Please give the measured Ki for this compound: CC1(C)CN(c2ncnc3[nH]c4ccccc4c23)CC(CC(=O)O)O1 (stereo not drawn) [Z2215]
101

// Ki lookup, key: CS(=O)(=O)NC(=O)C1CN(c2ncnc3[nH]c4cc(F)ccc4c23)CCO1 (stereo not drawn) [LL114_0019]
10.7
